Taken from patent US20210181109A1.

Test: NAC depletion percent, HPLC-fluorescence detection
Conditions: single substance, test substance solution 1 mmol/L, fluorescence method
Where a name gives a salt, the structure may show the parent alone.
Quantity Kind: NAC depletion (%)
One number for each entry, in %.

Use these answered entries as a reference point.
Compound	NAC depletion (%)
CCCCCCCCCCCCOC(=O)c1cc(O)c(O)c(O)c1 [Lauryl gallate]	99.5
CCO/C=C1\N=C(c2ccccc2)OC1=O	92.0

// for each compound below, give its NAC depletion (%)
1. CNc1ccc(O)cc1.CNc1ccc(O)cc1.O=S(=O)(O)O
2. Cn1sc(Cl)cc1=O
3. O=c1c(-c2ccccc2)c1-c1ccccc1
4. O=[N+]([O-])c1ccc(Cl)c([N+](=O)[O-])c1

**Result**
1. 100.0
2. 100.0
3. 29.7
4. 91.6

// for each compound below, give its NAC depletion (%)
1. CCCCCCCCCCCCCCCC(=O)Cl [Palmitoyl chloride]
2. CCN(CCNS(C)(=O)=O)c1ccc(N)c(C)c1.CCN(CCNS(C)(=O)=O)c1ccc(N)c(C)c1.O=S(=O)(O)O.O=S(=O)(O)O.O=S(=O)(O)O
3. CC(=O)C(=O)CC(C)C
4. CCOC(=O)/C=C\C(=O)OCC [Diethyl maleate]

**Result**
1. 11.5
2. 100.0
3. 14.8
4. 31.2

====

Experiment: NAL depletion percent, HPLC-UV detection (281 nm)
Settings: single substance, test substance solution 1 mmol/L, Reference (UV method)
Counter-ions that a name gives are not always drawn.
Binning of NAL depletion (%) into classes: bin 0 (below 3%), bin 1 (3% to below 20%), bin 2 (20% or more)

Molecule	Category Label
CCOC(=O)/C=C\C(=O)OCC [Diethyl maleate]	bin 1
O=C(O)C(=O)O	bin 1
CC(=O)C(=O)CC(C)C	bin 2
CC(=O)C(C)=O	bin 2
CCCCCCCCCCCCCCCC(=O)Cl [Palmitoyl chloride]	bin 2

Could you now look at the following molecule, please?
**Query** Form: Item = `Cn1sccc1=O` ; Class = ?
**Result** bin 1

====

Assay: NAC depletion percent, HPLC-fluorescence detection
Details: single substance, test substance solution 1 mmol/L, fluorescence method
I'd be grateful if you could share measured NAC depletion (%) for these entries.
Answers are plain numbers, in %.

Use these answered entries as a reference point.
Compound	Unit Info	NAC depletion (%)
O=c1[nH]sc2ccccc12 [1,2-Benzisothiazolin-3-one]	%	98.8
CCCCCCC#CC(=O)OC [Methyl 2-nonynoate]	%	12.4
c1ccc(COOCc2ccccc2)cc1 [Benzyl peroxide]	%	100.0
CCC=CC=CC=O [2,4-Heptadienal]	%	46.2
O=C(O)C(=O)O [Oxalic acid]	%	0.0
Cn1sccc1=O [2-Methyl-2H-isothiazol-3-one]	%	98.5
CCC(=O)C=Cc1ccc(OC)cc1 [1-(4-Methoxyphenyl)-1-penten-3-one]	%	1.2
CCC/C=C/C=O [trans-2-Hexanal]	%	97.9
O=C1OC(=O)c2ccccc21 [Phthalic anhydride]	%	0.3
CC(=O)C(C)=O [2,3-Butanedione]	%	45.2

// for each compound below, give its NAC depletion (%)
1. C=CCc1ccc(OC)cc1 [4-Allylanisole]
2. CC(C=O)c1ccccc1 (stereo not drawn) [2-Phenylpropionaldehyde]

**Result**
15.0
8.5

====

Test: NAL depletion percent, HPLC-UV detection (281 nm)
Settings: single substance, test substance solution 1 mmol/L, Reference (UV method)
I'd be grateful if you could share measured NAL depletion (%) for these entries.
Answers are plain numbers, in %.

Use these answered entries as a reference point.
Compound	NAL depletion (%)
CNc1ccc(O)cc1.CNc1ccc(O)cc1.O=S(=O)(O)O	22.8
CC(C=O)Cc1ccc(C(C)(C)C)cc1 (centres unmarked)	3.9
O=C1OC(=O)c2ccccc21 [Phthalic anhydride]	96.9
CCCCCCCCC(=O)Cl [Nonanoyl chloride]	39.4
CC(=O)C=Cc1ccccc1	7.2
Cn1sc(Cl)cc1=O	17.7

// for each compound below, give its NAL depletion (%)
1. C=CC(=O)OCC [Ethyl acrylate]
2. O=CC=Cc1ccccc1
3. CCCOC(=O)c1cc(O)c(O)c(O)c1 [Propyl gallate]
4. C=CCc1ccc(OC)cc1

**Result**
1. 13.7
2. 13.1
3. 56.4
4. 3.9

// for each compound below, give its NAL depletion (%)
1. CCN(CCNS(C)(=O)=O)c1ccc(N)c(C)c1.CCN(CCNS(C)(=O)=O)c1ccc(N)c(C)c1.O=S(=O)(O)O.O=S(=O)(O)O.O=S(=O)(O)O
2. CC(C=O)Cc1ccc(C(C)C)cc1 (centres unmarked)
3. O=[N+]([O-])c1ccc(Cl)c([N+](=O)[O-])c1
4. O=C(O)c1ccc2c(c1)C(=O)OC2=O [Trimellitic anhydride]

**Result**
16.5
1.7
6.1
97.0

// for each compound below, give its NAL depletion (%)
1. O=CCCCC=O
2. CC(CC=O)CCCC(C)(C)O (centres unmarked) [Hydroxycitronellal]
3. CCC/C=C/C=O [trans-2-Hexanal]

**Result**
53.1
1.5
12.3

====

Assay: NAC depletion percent, HPLC-UV detection (281 nm)
Details: Reference (UV method); non-allergenic substance
I'd be grateful if you could share measured NAC depletion (%) for these entries.
One number for each entry, in %.

Use these answered entries as a reference point.
Molecule	NAC depletion (%)
CCCCO	0.1
CCCOC(=O)c1ccc(O)cc1	0.1
ClC(Cl)c1ccccc1 [Benzylidene dichloride]	0.9
CC(=O)C1CCCCC1=O (stereo not shown)	1.3
COC(=O)c1ccccc1O [Methyl salicylate]	0.0
CCCCCCCCCCCCCC(=O)OC(C)C [Isopropyl myristate]	0.0

Could you now consider this next molecule?
**Query** Item `OCC(O)CO` has what recorded NAC depletion (%)?
**Result** 0.3

====

Test: NAC depletion percent, HPLC-fluorescence detection
Settings: Fluorescence method; non-allergenic substance
Quantity Kind: NAC depletion (%)

Molecule	NAC depletion (%)
CCCOC(=O)c1ccc(O)cc1	0.5%
C=C(C)C(=O)OCC(C)O (stereo not shown) [2-Hydroxypropyl methacrylate]	2.0%

// for each molecule below, give its NAC depletion (%)
1. Cc1ccc2oc(=O)ccc2c1
2. CC(O)C(=O)O (stereo not shown)
3. O=C(O)c1ccccc1O
4. OCC(O)CO
5. CC(O)CO (stereo not shown)
6. CCOC(=O)c1ccccc1C(=O)OCC [Diethyl phthalate]
7. COC(=O)c1ccc(O)cc1

**Result**
1. 1.3%
2. 1.4%
3. 0.1%
4. 0.2%
5. 0.7%
6. 0.0%
7. 0.7%

// for each molecule below, give its NAC depletion (%)
1. CCCCO
2. CC(C)O

**Result**
1: 2.1%; 2: 1.1%

// for each molecule below, give its NAC depletion (%)
1. Clc1ccccc1
2. O=C(O)c1ccc(O)cc1 [4-Hydroxybenzoic acid]

**Result**
1.3%
2.9%

====

Experiment: NAL depletion percent, HPLC-UV detection (281 nm)
Conditions: single substance, test substance solution 1 mmol/L, Reference (UV method)
Quick rule for you: NAL depletion (%) at 2% or higher means Y, lower means N.

Molecule	Category Label
O=CC=O	N
c1ccc(COOCc2ccccc2)cc1 [Benzyl peroxide]	Y
CCCCCC(C=O)=Cc1ccccc1	N
CC(C=O)c1ccccc1 (stereo not drawn)	Y
O=c1c(O)c(O)c1=O	N

Could you now look at the following molecule, please?
**Query** Decide: is the reported value of NAL depletion (%) for C=C(C)C1CC=C(C=O)CC1 (stereo not drawn) equal to or greater than 2%?
**Result** Y

====

Test: NAC depletion percent, HPLC-fluorescence detection
Conditions: single substance, test substance solution 1 mmol/L, fluorescence method
Rule: measured NAC depletion (%) below 20% gets Condition met; anything equal to or greater than 20% gets Condition not met.

Compound	Category Label
CC(CC=O)CCCC(C)(C)O (stereo not drawn) [Hydroxycitronellal]	Condition met

Could you now look at the following compound, please?
**Query** Confirm or reject: NAC depletion (%) of `CCCCCC(C=O)=Cc1ccccc1` lies strictly below 20%
**Result** Condition met

====

Test: NAL depletion percent, HPLC-fluorescence detection
Conditions: single substance, test substance solution 1 mmol/L, fluorescence method
I'd be grateful if you could share measured NAL depletion (%) for these entries.
Give bare numbers, in %.

Use these answered entries as a reference point.
Molecule	NAL depletion (%)
c1ccc(COOCc2ccccc2)cc1 [Benzyl peroxide]	63.7
CC(=O)C=Cc1ccccc1 [Benzylideneacetone]	10.0
Cn1sccc1=O [2-Methyl-2H-isothiazol-3-one]	4.6
CC(CC=O)CCCC(C)(C)O (stereo not drawn) [Hydroxycitronellal]	0.0
CCC=CC=CC=O [2,4-Heptadienal]	11.8

Could you now consider this next molecule?
**Query** Item CC(C=O)Cc1ccc(C(C)(C)C)cc1 (stereo not drawn) [Lilial] has what recorded NAL depletion (%)?
**Result** 0.2
